The reported measurements were obtained from the RNAGym collection of RNA variant scans (doi:10.1126/science.aae0568).

Exercise: for every item that follows, state its recorded yeast fitness.
B1: tRNA (parent)
chain: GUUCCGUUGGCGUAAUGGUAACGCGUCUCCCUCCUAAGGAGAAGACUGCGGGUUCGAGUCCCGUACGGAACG

variants of: B1; assay: yeast fitness relative to wild type (ratio to wild type); higher = fitter; tRNA-Arg(CCU), competitive growth, 37 C, YPD
Fewer inactive variants are shown than the library holds.

Worked set:
C5U A21U A36U A65G
≤ 0.5
C4U G17A A57U
≤ 0.5
C4G G6A C11U C61U
≤ 0.5
C4G A14C G25C U32C A45U A57U
≤ 0.5
C4G A36U C46G C62A A69C
≤ 0.5
C11U C55A C66A
≤ 0.5

Please give yeast fitness for each item listed below.
1. C22G C29A U53A C66U
2. A21C A65C G67U
3. G10C G12A C22A C24G U53A

Reply:
≤ 0.5
≤ 0.5
≤ 0.5
